All values here come from PubChem BioAssay (NCI).

# Tested on: HOP-92 NSCLC
# test method notes: NCI tumour cell line growth inhibition, 48 h
Where a SMILES comes first, the peptide text is derived from it. The star is where a group is joined. Boc = CC(C)(C)OC(=O)*; Bz = O=C(c1ccccc1)*
measurement label: TGI (µM)
Express your answer in µM, writing the number without its unit.

// query Give TGI for the following compound: COc1ccc(OC)c(/C=N/NC(=O)Cc2csc3nc(-c4ccc(Br)cc4)cn23)c1
// result 35.5

// query Let me know recorded TGI for CS/C(=N\C(=S)N(C)C)N(c1ccccc1)c1nc(=[N+](C)C)ss1 , thanks.
// result 51.2

// query Return reported TGI. Input compound: Cn1cc(-c2ccc3c(Nc4cccc(NC(=O)Nc5cccc(F)c5)c4)ncnc3c2)cn1
// result 9.08

// query Identify the reported TGI for the following entry. O=C(Nc1cccc(-n2ccc3c(NC(=O)c4ccccc4)nccc32)c1)c1ccc(N2CCOCC2)c(C(F)(F)F)c1
// result 6.87

// query Quote TGI reported for COc1cc(NS(C)(=O)=O)ccc1Nc1c2ccc([N+](=O)[O-])cc2nc2c(C)cccc12 please.
// result 1.68

// query Supply reported TGI belonging to this compound: OC(c1cccc(-n2ccc(C(F)(F)F)n2)c1)c1cnccc1NC1CCCCCC1 (stereo not given)
// result 2.53

// query Identify TGI associated with the compound O=C1/C(=C/c2ccccc2)CCCC1CN1CCCCC1 (stereo not given)
// result 6.05

// query State its TGI for this compound: CN1N=CSC12C(=O)N(c1ccc(Cl)cc1)C(=O)N2c1ccc(Cl)cc1 (stereo not given)
// result 8.92

// query Please give measured TGI of the following entry: CC(NC(=O)C(Cc1ccc(OC(=O)c2ccccc2)cc1)NC(=O)OC(C)(C)C)C(=O)NC(Cc1ccccc1)C(=O)NCC(N)=O (stereo not given) (Boc-Y(Bz)AFG-NH2; configuration not given here)
// result 50.9

// query State its TGI for this compound: COc1ccc(C2CC(c3cc(OC)c(OC)c(OC)c3)=NO2)cc1OCCCCOc1cc2c(cc1OC)C(=O)N1CCC[C@H]1C=N2 (stereo not given in full)
// result 10.3

// query Give TGI for CN=C(N)N/N=C(\C)c1ccc2c(c1)Cc1cc(/C(C)=N/NC(N)=NC)ccc1-2
// result 6.15

// query Supply reported TGI belonging to this compound: NCC(=O)NC1(c2cc3ccccc3s2)CCCCC1
// result 78.1

// query Query TGI for CC1(C)CCC[C@@]2(C)C1CCC1(C)C(CCc3ccoc3)/C(=C/OS(=O)(=O)O)CCC12 (stereo not given in full) (tested in a mixture with another compound)
// result 63.2

// query Please give measured TGI of the following entry: COC(=O)[C@@]12C(=O)C=CC(=O)[C@@H]1C1C(=CC2COC(C)=O)O[C@@H]2OC3(CCCCC3)O[C@H]12 (stereo not given in full)
// result 21.2

// query Supply measured TGI of Cc1ccc(-c2nc(C)c(C(=O)Nc3ccc(Cl)cc3)s2)cc1 in your reply.
// result 70.2

// query # return recorded TGI for input Cc1c(C#N)c2nnn(-c3ccc(Cl)cc3)c(=O)n2c1-c1ccccc1
// result 25.7

// query Specify TGI for COc1ccc(/C=C2\CCCC(CN(C)C)C2=O)cc1 (stereo not given) and stop.
// result 8.99
